Hello, the source for this data is PubChem BioAssay AID1822, in case you need it.

# Tested on: M18 aspartyl aminopeptidase (Plasmodium falciparum 3D7)
# method: inhibition of P. falciparum M18 aminopeptidase – biochemical, QFRET, recombinant enzyme, primary screen (AID 1822);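 note: 0% = plate median of test compound wells and 100% = 2 mM ZnCl2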
# applied-conditions: recombinant PfM18AAP, H-Glu-NHMec fluorogenic cleavage; at 7.35 µM; active compounds read high
Hit rate of the full screen: of about 290,000 compounds, about 3,500 (1.2%) were called active. The entries come from a sample that favours actives as a whole.

molecule | test-target | inhibition, %
COc1ccc(OC)c(Nc2nc(-c3ccc(O)c(O)c3)cs2)c1 | M18 aspartyl aminopeptidase (Plasmodium falciparum 3D7) | 56.5
CCOc1ccc(C2C3=C(CCCC3=O)N(CC(=O)O)C3=C2C(=O)CCC3)cc1 | M18 aspartyl aminopeptidase (Plasmodium falciparum 3D7) | 32.6
COc1ccc(/C=N/N=C2/C(=O)Nc3ccccc32)cc1O | M18 aspartyl aminopeptidase (Plasmodium falciparum 3D7) | 30.7
CC(C)(C)NC(=O)NC(=O)COC(=O)C1c2ccccc2Oc2ccccc21 | M18 aspartyl aminopeptidase (Plasmodium falciparum 3D7) | 6.75
COc1ccc(CNc2nc3c(c(=O)[nH]c(=O)n3C)n2Cc2ccccc2)cc1 | M18 aspartyl aminopeptidase (Plasmodium falciparum 3D7) | 7.49
COc1cccc2sc(NNC(=O)c3nc4ccccc4s3)nc12 | M18 aspartyl aminopeptidase (Plasmodium falciparum 3D7) | 30.1
CCOC(=O)C1CCCN(S(=O)(=O)c2ccc3c(c2)C(C)(C)C(=O)N3C)C1 (stereo unspecified) | M18 aspartyl aminopeptidase (Plasmodium falciparum 3D7) | 7.85
CC(=O)Nc1cccc(C(=O)Nc2nc(C)cs2)c1 | M18 aspartyl aminopeptidase (Plasmodium falciparum 3D7) | -10.2
Oc1ccc(-c2csc(Nc3cccnc3)n2)cc1 | M18 aspartyl aminopeptidase (Plasmodium falciparum 3D7) | 55.7
COc1ccc2nc(Nc3nc(-c4ccncc4)cs3)sc2c1 | M18 aspartyl aminopeptidase (Plasmodium falciparum 3D7) | -1.76
COc1ccc(OC)c(C(O)c2nc3ccccc3n2C)c1 (stereo unspecified) | M18 aspartyl aminopeptidase (Plasmodium falciparum 3D7) | 2.35
[2H]C(CCOS(N)(=O)=O)c1ccccc1 (stereo unspecified) | M18 aspartyl aminopeptidase (Plasmodium falciparum 3D7) | -1.1
COc1cccc2sc(Nc3nc(C)c(C(C)=O)s3)nc12 | M18 aspartyl aminopeptidase (Plasmodium falciparum 3D7) | 7.92
CCC(C)NC(=O)CSC1=Nc2ccccc2C2=NC(CCC(=O)NCc3ccco3)C(=O)N12 (stereo unspecified) | M18 aspartyl aminopeptidase (Plasmodium falciparum 3D7) | -0.47
COc1ccccc1OCc1nc2ccccc2s1 | M18 aspartyl aminopeptidase (Plasmodium falciparum 3D7) | 2.93
NS(=O)(=O)c1ccc(Nc2nc(-c3ccccc3)cs2)cc1 | M18 aspartyl aminopeptidase (Plasmodium falciparum 3D7) | 2.74
CC(=O)Nc1ccc(NC(=O)[C@@H](NC(=O)c2cccc(C)c2)C(C)C)cc1 | M18 aspartyl aminopeptidase (Plasmodium falciparum 3D7) | -0.5
CC(C)=CCN1CCN(CCCc2ccccc2)CC1CCO (stereo unspecified) | M18 aspartyl aminopeptidase (Plasmodium falciparum 3D7) | -4.62
O=c1c2cc([N+](=O)[O-])ccc2nc2n1CCC2 | M18 aspartyl aminopeptidase (Plasmodium falciparum 3D7) | 3.84
CN(C)/C=C1/C(=O)Nc2ccccc21 | M18 aspartyl aminopeptidase (Plasmodium falciparum 3D7) | 7.19
O=C(CSC1=Nc2ccccc2C2=NC(CC(=O)NCc3ccco3)C(=O)N12)NCc1ccco1 (stereo unspecified) | M18 aspartyl aminopeptidase (Plasmodium falciparum 3D7) | 7.17
O=C(COC(=O)c1ccc(N2CCCC2=O)cc1)c1ccc(OC(F)F)cc1 | M18 aspartyl aminopeptidase (Plasmodium falciparum 3D7) | 0.74
C[C@H](NC(=O)c1nc[nH]c1C(=O)NCC(=O)OC(C)(C)C)c1ccccc1 | M18 aspartyl aminopeptidase (Plasmodium falciparum 3D7) | 1.03
Cc1nc2ccccc2n1CC(=O)N/N=C/c1cccnc1 | M18 aspartyl aminopeptidase (Plasmodium falciparum 3D7) | 0.09
CSCCC(NS(=O)(=O)c1ccc(C)cc1)C(=O)N1CCCC1 (stereo unspecified) | M18 aspartyl aminopeptidase (Plasmodium falciparum 3D7) | -2.59
COCCCNC(=O)C1CC(=O)N(CCc2ccc(F)cc2)C1 (stereo unspecified) | M18 aspartyl aminopeptidase (Plasmodium falciparum 3D7) | 2.65
Cn1c(SCC(=O)N/N=C/c2ccc(O)c(O)c2)nc2ccccc21 | M18 aspartyl aminopeptidase (Plasmodium falciparum 3D7) | 61.1
CCS(=O)(=O)Nc1ccc(C(=O)NCCSc2ccccc2)cc1 | M18 aspartyl aminopeptidase (Plasmodium falciparum 3D7) | -4.1
CCc1ccc(C(CNc2nc(C(F)(F)F)nc3ccccc23)N(C)C)cc1 (stereo unspecified) | M18 aspartyl aminopeptidase (Plasmodium falciparum 3D7) | 2.51
COc1ccc(N(Cc2cc3ccc(C)cc3[nH]c2=O)S(=O)(=O)c2ccccc2)cc1 | M18 aspartyl aminopeptidase (Plasmodium falciparum 3D7) | 6.49
COc1ccc(C)cc1Nc1nc(-c2c(C)[nH]c3ccccc23)cs1 | M18 aspartyl aminopeptidase (Plasmodium falciparum 3D7) | -5.8
COc1cc(Nc2nc3ccc(Cl)cc3n3cnnc23)cc(OC)c1OC | M18 aspartyl aminopeptidase (Plasmodium falciparum 3D7) | -5.42
COc1ccccc1NC(=O)c1ccc2nc(N3C(=O)CCC3=O)sc2c1 | M18 aspartyl aminopeptidase (Plasmodium falciparum 3D7) | -4.36
CC(C)(C)OC(=O)NNc1c2ccccc2nc2ccccc12 | M18 aspartyl aminopeptidase (Plasmodium falciparum 3D7) | 29.7
COc1cc(/C=N/Nc2nn3cnnc3c3ccccc23)cc(OC)c1OC | M18 aspartyl aminopeptidase (Plasmodium falciparum 3D7) | 43.6
CCS(=O)(=O)C1=NSC2=NC(=O)/C(=C\c3ccc(OS(=O)(=O)c4ccccc4)cc3)C(=N)N21 | M18 aspartyl aminopeptidase (Plasmodium falciparum 3D7) | 5.46

====

# Tested on: M18 aspartyl aminopeptidase (Plasmodium falciparum 3D7)
# method: inhibition of P. falciparum M18 aminopeptidase – biochemical, QFRET, recombinant enzyme, primary screen (AID 1822);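 note: 0% = plate median of test compound wells and 100% = 2 mM ZnCl2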
# applied-conditions: recombinant PfM18AAP, H-Glu-NHMec fluorogenic cleavage; at 7.35 µM; active compounds read high
In all, about 290,000 compounds went through this assay and about 3,500 (1.2%) were called active. This is one part of a sample in which actives are shown more often than they occur.

structure-as-smiles | test-target | inhibition (%)
NC(=O)c1c(Nc2nc3c(F)cccc3s2)sc2c1CCCC2 | M18 aspartyl aminopeptidase (Plasmodium falciparum 3D7) | 49.1
CCOc1ccccc1NC(=O)NC1CCCCCCC1 | M18 aspartyl aminopeptidase (Plasmodium falciparum 3D7) | -2.13
Cc1cc(C)nc(Nc2cc([N+](=O)[O-])ccc2C)n1 | M18 aspartyl aminopeptidase (Plasmodium falciparum 3D7) | -2.82
O=C(CO/N=C/c1ccccc1O)NNC(=O)c1ccccc1Cl | M18 aspartyl aminopeptidase (Plasmodium falciparum 3D7) | 43.1
Cc1cc(C)nc(Nc2ncn[nH]2)n1 | M18 aspartyl aminopeptidase (Plasmodium falciparum 3D7) | 70.4
COc1ccc(N2CCN(C(=O)CN3C(=O)COc4ccccc43)CC2)cc1 | M18 aspartyl aminopeptidase (Plasmodium falciparum 3D7) | -6.46
O=C(N/N=C/c1ccc(OC(=O)c2ccccc2Cl)cc1)c1ccc(O)cc1 | M18 aspartyl aminopeptidase (Plasmodium falciparum 3D7) | 8.47
Cc1cc(C)nc(Nc2n[nH]c(-c3ccccc3N)n2)n1 | M18 aspartyl aminopeptidase (Plasmodium falciparum 3D7) | -3.26
N=c1c2c3c(sc2ncn1N)CCCC3 | M18 aspartyl aminopeptidase (Plasmodium falciparum 3D7) | 2.91

====

# Tested on: M18 aspartyl aminopeptidase (Plasmodium falciparum 3D7)
# method: inhibition of P. falciparum M18 aminopeptidase – biochemical, QFRET, recombinant enzyme, primary screen (AID 1822);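 note: 0% = plate median of test compound wells and 100% = 2 mM ZnCl2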
# applied-conditions: recombinant PfM18AAP, H-Glu-NHMec fluorogenic cleavage; at 7.35 µM
The campaign covered roughly 290,000 compounds. About 3,500 (1.2%) were called active.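 Rule for the calls: active = inhibition above the campaign mean inhibition over all tested compounds plus 3 SD (cut at about 28% in these data); inactive = the rest.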 Only a selection was taken, and actives are over-represented in it overall.
Classes used: 1 for active, -1 for inactive

molecule | label-value
COc1cc(/C=N/O)ccc1OCc1ccc([N+](=O)[O-])cc1 | -1
COc1cc(/C=N\Nc2ccc([N+](=O)[O-])cn2)ccc1OCC(=O)O | 1
Cc1ccsc1/C=N/n1c(=S)[nH]nc(C)c1=O | -1
CCOC(=O)c1c(NC(=S)NC(=O)c2ccco2)sc2c1CCCC2 | -1
O=C(Nc1ccc(F)cc1)c1ccc(S(=O)(=O)NCc2cccnc2)cc1 | -1
CCOc1ccc(/C=N/Nc2nncc(-c3ccccc3)n2)cc1OC | -1
CN(C)c1ccnc2sc(C(=O)c3ccccc3)c(N)c12 | -1
Cc1cc(/C=C2\SC(=O)N(C)C2=O)c(C)n1-c1cccc(C(=O)O)c1 | -1
CCOC(=O)c1sc(/N=C/C2=C(O)CC(C)(C)CC2=O)c(C(=O)OCC)c1C | -1
O=C(CN1CCN(S(=O)(=O)c2cc(Cl)ccc2Cl)CC1)c1ccc(O)c(O)c1 | 1
Oc1cccc(/C=N/Nc2ccc(Cl)nn2)c1O | 1
OCCNc1nc2ccccc2n1-c1ncnc2sc3c(c12)CCC3 | -1
CCN(CC)S(=O)(=O)c1cc([N+](=O)[O-])ccc1N=Nc1c(O)n(C)c2ccccc12 | -1
Cc1cc(=O)oc2c(C)c(OC(C)C(=O)NC3CCN(Cc4ccccc4)CC3)ccc12 (stereo unspecified) | -1
Oc1c(Br)cccc1/C=N/Nc1c(F)c(F)c(F)c(F)c1F | -1
CNC(=O)c1c(NC(NC(=O)c2ccco2)C(=O)c2ccc(Cl)cc2)sc2c1CCCC2 (stereo unspecified) | 1
